biological target: T1, Recombinant TNFα containing an N-terminal 13-aa ybbR tag (human, UniProt P01375 77-233, biotin at the ybbR tag in the ELISA assays); experiment: ELISA, inhibition of TNFR1-HRP binding to immobilized biotin-TNFα
T1 construct: Expressed in E. coli; Same construct used unlabelled (FA) and biotinylated on NeutrAvidin (ELISA); also called tumor necrosis factor-alpha; human TNFα; not shown: N-terminal 13-aa ybbR tag
T1 sequence (P01375 77-233): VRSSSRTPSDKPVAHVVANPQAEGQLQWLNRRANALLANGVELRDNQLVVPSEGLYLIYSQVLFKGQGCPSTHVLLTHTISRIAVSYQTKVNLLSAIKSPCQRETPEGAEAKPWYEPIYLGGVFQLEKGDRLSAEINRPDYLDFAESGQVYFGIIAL
Positions of bridges follow the written chain, without caps; N, C: chain ends. Non-standard residues stand in square brackets, D forms with d. Primed or numbered codes have the meaning given here. trimesoyl″ = benzene-1,3,5-tricarbonyl scaffold; Nle = CCCC[C@H](N)C(=O)O; Dap = NC[C@H](N)C(=O)O; βAla = NCCC(=O)O
observation-type: pIC50
Kindly note that pIC50 refers to -log10 of the concentration in mol/L and answer with the value alone.

**Query** I'd like to know its pIC50. The binder in question is [Nle]Y[dS]KW[dH]G[dK]H[Dap][βAla]A-NH2 (linker N-4-10 via trimesoyl″, No Lys(FITC) label) [C1-68]
**Result** 5.59
